Provide the reported pIC50 of each item.
Assay: Antiproliferative activity against Hs683 cells after 72 hrs by MTT assay
Assay type: functional, cell-based, Homo sapiens, Hs 683
Conditions: Homo sapiens, Hs 683, 72 h
pIC50: −log10 of the molar value.

Below are worked cases with known answers.
- smiles.str: "CN(C)CCN1C(=O)c2cccc3cc(NC(=S)Nc4ccc(C#N)cc4)cc(c23)C1=O"
  endpoint.value: "< 5.00"
- smiles.str: "CC(=O)Nc1cc2c3c(cccc3c1)C(=O)N(CCN(C)C)C2=O"
  endpoint.value: "< 5.00"
- smiles.str: "CN(C)CCN1C(=O)c2cccc3cc(/N=C\\c4cc5c(cc4[N+](=O)[O-])OCO5)cc(c23)C1=O"
  endpoint.value: "< 5.00"

Would you mind listing pIC50 for each of the following compounds?
1. CN(C)CCN1C(=O)c2cccc3cc(NC(=S)NCc4ccc5c(c4)OCO5)cc(c23)C1=O
2. CN(C)CCN1C(=O)c2cccc3cc(/N=C\c4ccc(C#N)cc4)cc(c23)C1=O
3. COc1cc(/C=N\c2cc3c4c(cccc4c2)C(=O)N(CCN(C)C)C3=O)cc(OC)c1OC
4. CCOC(=O)CC(=O)Nc1cc2c3c(cccc3c1)C(=O)N(CCN(C)C)C2=O
5. CN(C)CCN1C(=O)c2cccc3cc(NC(=O)CCCCl)cc(c23)C1=O
6. CN(C)CCN1C(=O)c2cccc3cc(NCc4ccccc4O[C@H]4O[C@H](CO)[C@@H](O)[C@H](O)[C@H]4O)cc(c23)C1=O.Cl

Reply:
["< 5.00", "< 5.00", "< 5.00", "< 5.00", "< 5.00", "< 5.00"]

Recorded values, source ChEMBL document CHEMBL1148725.
